Each entry below carries its reported Ki.
SYSTEM UNDER TEST: Mu-type opioid receptor (Homo sapiens)
Sequence (P35372 whole entry): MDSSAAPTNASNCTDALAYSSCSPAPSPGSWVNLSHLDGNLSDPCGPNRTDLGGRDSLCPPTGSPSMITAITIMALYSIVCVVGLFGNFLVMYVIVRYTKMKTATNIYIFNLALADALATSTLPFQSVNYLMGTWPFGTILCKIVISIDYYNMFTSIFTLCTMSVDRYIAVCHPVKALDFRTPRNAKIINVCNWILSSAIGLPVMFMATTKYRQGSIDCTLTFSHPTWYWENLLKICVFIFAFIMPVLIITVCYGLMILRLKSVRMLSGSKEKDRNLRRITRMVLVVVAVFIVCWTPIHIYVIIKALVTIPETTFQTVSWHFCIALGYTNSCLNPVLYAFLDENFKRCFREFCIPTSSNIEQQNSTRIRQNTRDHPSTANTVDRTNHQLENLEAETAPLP

>  <COMPOUND>
O=c1cc(O)cc2oc(-c3ccc(O)c(O)c3)c(OC3OC(CO)C(O)C(O)C3O)c(O)c1-2 (configuration not stated)

>  <Ki>
> 10 µM

$$$$
>  <COMPOUND>
C[C@@H]1O[C@@H](Oc2c(-c3ccc(O)c(O)c3)oc3cc(O)cc(=O)c-3c2O)[C@H](O)[C@H](O)[C@H]1O

>  <Ki>
> 10 µM

$$$$

###

SYSTEM UNDER TEST: Delta-type opioid receptor (Homo sapiens)
Sequence (P41143 whole entry): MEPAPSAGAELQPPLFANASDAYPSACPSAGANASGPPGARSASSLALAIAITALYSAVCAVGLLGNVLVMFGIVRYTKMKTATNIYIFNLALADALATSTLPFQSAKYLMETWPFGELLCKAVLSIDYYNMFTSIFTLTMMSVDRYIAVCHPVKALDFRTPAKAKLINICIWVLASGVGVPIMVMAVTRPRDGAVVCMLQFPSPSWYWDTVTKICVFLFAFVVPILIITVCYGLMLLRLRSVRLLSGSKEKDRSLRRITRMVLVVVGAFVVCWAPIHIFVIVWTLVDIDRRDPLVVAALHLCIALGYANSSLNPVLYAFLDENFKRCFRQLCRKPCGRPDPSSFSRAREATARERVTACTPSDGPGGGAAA
pKi: −log10 of the molar value.

>  <SMILES ENTRY>
O=c1cc(O)cc2oc(-c3ccc(O)c(-c4c(O)cc(O)c5c(=O)cc(-c6ccc(O)cc6)oc45)c3)cc(O)c1-2

>  <pKi>
7.44

$$$$

###

SYSTEM UNDER TEST: Alpha-2A adrenergic receptor (Homo sapiens, UniProt P08913)
Sequence (P08913 whole entry): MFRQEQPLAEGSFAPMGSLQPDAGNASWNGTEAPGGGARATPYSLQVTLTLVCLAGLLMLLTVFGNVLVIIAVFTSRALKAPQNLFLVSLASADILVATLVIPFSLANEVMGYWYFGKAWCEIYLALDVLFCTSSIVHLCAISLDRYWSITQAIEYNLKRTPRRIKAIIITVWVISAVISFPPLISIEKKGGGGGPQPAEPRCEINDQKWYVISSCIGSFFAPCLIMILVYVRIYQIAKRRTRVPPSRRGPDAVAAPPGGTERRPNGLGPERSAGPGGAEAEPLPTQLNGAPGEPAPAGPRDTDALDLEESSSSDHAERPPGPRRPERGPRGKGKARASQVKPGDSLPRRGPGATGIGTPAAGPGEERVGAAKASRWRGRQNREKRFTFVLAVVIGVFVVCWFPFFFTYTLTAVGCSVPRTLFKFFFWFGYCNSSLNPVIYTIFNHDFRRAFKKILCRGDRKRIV
pKi: −log10 of the molar value.
Each entry below carries its reported pKi.

>  <MOLECULE>
O=c1c(O)c(-c2ccc(O)c(O)c2)oc2cc(O)cc(O)c12

>  <pKi>
< 5.00

$$$$
>  <MOLECULE>
O=c1cc(O)cc2oc(-c3ccc(O)c(-c4c(O)cc(O)c5c(=O)cc(-c6ccc(O)cc6)oc45)c3)cc(O)c1-2

>  <pKi>
< 5.00

$$$$
>  <MOLECULE>
C[C@@H]1O[C@@H](OC[C@H]2O[C@@H](Oc3c(-c4ccc(O)c(O)c4)oc4cc(O)cc(O)c4c3=O)[C@H](O)[C@@H](O)[C@@H]2O)[C@H](O)[C@H](O)[C@H]1O [3-Rhamnoglucosylquercetin]

>  <pKi>
5.03

$$$$
>  <MOLECULE>
C[C@@H]1O[C@@H](Oc2c(-c3ccc(O)c(O)c3)oc3cc(O)cc(=O)c-3c2O)[C@H](O)[C@H](O)[C@H]1O

>  <pKi>
< 5.00

$$$$

###

SYSTEM UNDER TEST: Beta-1 adrenergic receptor (Rattus norvegicus)
Sequence (P18090 whole entry): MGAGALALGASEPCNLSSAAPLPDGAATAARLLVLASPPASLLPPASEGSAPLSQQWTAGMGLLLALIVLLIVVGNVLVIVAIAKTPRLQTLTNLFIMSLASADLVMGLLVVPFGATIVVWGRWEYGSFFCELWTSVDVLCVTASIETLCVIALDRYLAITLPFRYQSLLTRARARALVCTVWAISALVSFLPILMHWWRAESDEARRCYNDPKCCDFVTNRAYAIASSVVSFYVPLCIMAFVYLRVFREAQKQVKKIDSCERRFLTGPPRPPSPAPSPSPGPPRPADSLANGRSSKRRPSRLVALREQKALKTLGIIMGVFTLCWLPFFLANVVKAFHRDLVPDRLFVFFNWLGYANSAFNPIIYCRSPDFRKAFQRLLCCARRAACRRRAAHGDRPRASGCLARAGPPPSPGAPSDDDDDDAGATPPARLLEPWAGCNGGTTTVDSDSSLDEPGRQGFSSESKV
VALUE TYPE: Ki

>  <SMILES ENTRY>
O=c1c(O)c(-c2ccc(O)c(O)c2)oc2cc(O)cc(O)c12

>  <MEASUREMENT>
> 10 µM

$$$$
>  <SMILES ENTRY>
O=c1cc(O)cc2oc(-c3ccc(O)c(-c4c(O)cc(O)c5c(=O)cc(-c6ccc(O)cc6)oc45)c3)cc(O)c1-2

>  <MEASUREMENT>
> 10 µM

$$$$
>  <SMILES ENTRY>
C[C@@H]1O[C@@H](Oc2c(-c3ccc(O)c(O)c3)oc3cc(O)cc(=O)c-3c2O)[C@H](O)[C@H](O)[C@H]1O

>  <MEASUREMENT>
> 10 µM

$$$$

###

Each entry below carries its reported Ki.
SYSTEM UNDER TEST: Alpha-2B adrenergic receptor (Homo sapiens, UniProt P18089)
Sequence (P18089 whole entry): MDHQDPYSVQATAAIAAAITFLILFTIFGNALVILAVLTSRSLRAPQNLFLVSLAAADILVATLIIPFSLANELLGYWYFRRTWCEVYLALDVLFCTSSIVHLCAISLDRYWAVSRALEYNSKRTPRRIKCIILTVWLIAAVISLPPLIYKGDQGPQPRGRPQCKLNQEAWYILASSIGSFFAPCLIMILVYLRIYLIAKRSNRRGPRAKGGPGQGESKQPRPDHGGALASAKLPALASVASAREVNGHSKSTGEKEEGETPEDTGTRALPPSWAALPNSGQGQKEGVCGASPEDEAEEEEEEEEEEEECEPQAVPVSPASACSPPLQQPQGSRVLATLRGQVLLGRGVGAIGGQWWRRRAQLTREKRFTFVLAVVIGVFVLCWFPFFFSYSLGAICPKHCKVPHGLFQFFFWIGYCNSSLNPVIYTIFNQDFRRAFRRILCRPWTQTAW

>  <SMILES ENTRY>
C[C@@H]1O[C@@H](OC[C@H]2O[C@@H](Oc3c(-c4ccc(O)c(O)c4)oc4cc(O)cc(O)c4c3=O)[C@H](O)[C@@H](O)[C@@H]2O)[C@H](O)[C@H](O)[C@H]1O

>  <Ki>
> 10 µM

$$$$
>  <SMILES ENTRY>
C[C@@H]1O[C@@H](Oc2c(-c3ccc(O)c(O)c3)oc3cc(O)cc(=O)c-3c2O)[C@H](O)[C@H](O)[C@H]1O

>  <Ki>
> 10 µM

$$$$
>  <SMILES ENTRY>
O=c1c(O)c(-c2ccc(O)c(O)c2)oc2cc(O)cc(O)c12

>  <Ki>
> 10 µM

$$$$
>  <SMILES ENTRY>
O=c1cc(O)cc2oc(-c3ccc(O)c(-c4c(O)cc(O)c5c(=O)cc(-c6ccc(O)cc6)oc45)c3)cc(O)c1-2

>  <Ki>
> 10 µM

$$$$
